Tested on: K-562 leukemia
Assay: NCI-60 one-dose screen, 48 h
Conditions: 10 µM unless noted
Compounds without any hit were thinned out: in the full panel of roughly 83,000, 20% have a hit. Calls of active or inactive are those of the source. The calls were made as follows: active = growth percent below 10; inactive = the rest.
Classes used: 1 for active, 0 for inactive

INSERT INTO assay_data (compound, answer_label) VALUES
  ('C[C@@H]1CCCCCCCCC[C@H](O)C(=O)C[C@@H](SC[C@@H](O)C(=O)O)C(=O)O1', 0),
  ('COc1cc(/C=N/NC(=S)NNC(=S)NC2CCCCC2)cc(OC)c1OC', 0),
  ('Cc1cc(N2CCOCC2)nc(N(CCCNc2ccnc3cc(Cl)ccc23)Cc2ccco2)n1', 1),
  ('O=C1C=C(C(O)c2ccc(O)cc2)C(=O)c2ccccc21 (stereo not given)', 0),
  ('COc1cccc2c1C(=O)c1c(O)c3c(c(O)c1C2=O)C[C@@](O)(C(=O)CO)C[C@@H]3OC1C[C@H](N)[C@H](O)[C@H](C)O1 (stereo not given in full)', 1);
